testedOn: orexin-2 receptor (hOX2R) (Homo sapiens)
Construct: expressed in transfected cells; host or cells: Chinese hamster ovary (CHO) cells
Sequence (O43614 whole entry): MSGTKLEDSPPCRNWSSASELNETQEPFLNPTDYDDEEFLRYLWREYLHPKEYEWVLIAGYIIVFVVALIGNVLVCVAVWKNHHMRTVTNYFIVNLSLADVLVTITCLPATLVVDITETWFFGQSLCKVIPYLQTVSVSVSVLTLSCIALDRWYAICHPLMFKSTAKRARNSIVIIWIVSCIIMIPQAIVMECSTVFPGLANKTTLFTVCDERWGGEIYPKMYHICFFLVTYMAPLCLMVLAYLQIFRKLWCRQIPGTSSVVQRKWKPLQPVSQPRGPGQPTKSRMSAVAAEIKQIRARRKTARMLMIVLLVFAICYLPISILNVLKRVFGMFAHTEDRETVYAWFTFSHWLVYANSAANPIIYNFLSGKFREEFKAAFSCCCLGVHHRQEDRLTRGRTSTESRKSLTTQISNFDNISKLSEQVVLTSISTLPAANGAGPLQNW
measurementDescription: Orexin antagonistic activity assay (intracellular Ca2+, FDSS) in CHO cells expressing hOX2R
Assay type: cell-based
condition: CHO cells expressing hOX2R; ligand peptide 3 nM; Fluo-3 maximum fluorescence intensity; read-out: IC50 value OX2
log10 of IC50 by entry:
Friendly reminder: values = log10 of IC50, unit nM.

Guide cases for log10 of IC50, answers given:
C[C@@H]1CC[C@@H](c2nc3cc(Cl)ccc3o2)CN1C(=O)c1ccc(F)cc1-n1nccn1 [Example 14] :: 0.94
Cc1ccc(-n2nccn2)c(C(=O)N2C[C@H](c3nc4cc(C(F)(F)F)ccc4o3)CC[C@H]2C)c1 [Example 36] :: 0.40
Cc1ccc(-n2nccn2)c(C(=O)N2C[C@H](c3nc4c(F)cccc4o3)CC[C@H]2C)c1 [Example 66] :: 1.31
C[C@@H]1CC[C@@H](c2nc3cc(Cl)ccc3o2)CN1C(=O)c1cccc(F)c1-c1ncccn1 [Example 18] :: 1.77
Cc1ccc(C(=O)N2C[C@H](c3nc4cc(Cl)ccc4o3)CC[C@H]2C)c(-n2nccn2)c1 [Example 26] :: 0.92

**Query** Given the compound C[C@@H]1CC[C@@H](c2nc3cc(C(F)(F)F)ccc3o2)CN1C(=O)c1cc(F)ccc1-c1ncccn1 [Example 38] , write its reported log10 of IC50.
**Result** 1.90

**Query** Write down log10 of IC50 measured for item Cc1ccc(-c2ncccn2)c(C(=O)N2C[C@H](c3nc4cc(C(F)(F)F)ccc4o3)CC[C@H]2C)c1 [Example 37]
**Result** 0.97
